Entry source: patent US7759101B2

# Tested on: ginsenoside glycosidases from A. niger
# protocol_notes: Hydrolysis of ginsenosides with crude ginsenoside glycosidases from A. niger, products measured by TLC
# Assay type: biochemical, Aspergillus niger
# condition_parameters: pH 5, 30° C., 18 hours
# Protocol: Aspergillus niger FFCCDL-48 g was cultured in a medium containing 1% ginseng extracts and 3% wheat bran extracts at 30° C. for 54 hours. […] 100 mg each of ginsenosides Rb1, Rb2, Rc and Rd and 10 mg of ginsenoside Rg3 were dissolved in separate tubes containing 10 ml of 0.01M acetate buffer pH 5. […] The products were measured by thin layer chromatography (TLC) (Silica gel 60-F254, Merck; chloroform:methanol:water 70:30:5). […]
As shown below, each of these molecules has a reported Percentage of F2 in the reaction product value.
Supply the numeric figure in %, leaving out any unit text.

Sample records with Percentage of F2 in the reaction product:
molecule	Percentage of F2 in the reaction product, %
CC(C)=CCC[C@](C)(O[C@@H]1O[C@H](CO[C@@H]2O[C@H](CO)[C@@H](O)[C@H](O)[C@H]2O)[C@@H](O)[C@H](O)[C@H]1O)[C@H]1CC[C@]2(C)[C@@H]1[C@H](O)C[C@@H]1[C@@]3(C)CC[C@H](O[C@@H]4O[C@H](CO)[C@@H](O)[C@H](O)[C@H]4O[C@@H]4O[C@H](CO)[C@@H](O)[C@H](O)[C@H]4O)C(C)(C)[C@@H]3CC[C@]12C [Rb1, ginsenoside Rb1]	63
CC(C)=CCC[C@](C)(O[C@@H]1O[C@H](CO[C@@H]2OC[C@H](O)[C@H](O)[C@H]2O)[C@@H](O)[C@H](O)[C@H]1O)[C@H]1CC[C@]2(C)[C@@H]1[C@H](O)C[C@@H]1[C@@]3(C)CC[C@H](O[C@@H]4O[C@H](CO)[C@@H](O)[C@H](O)[C@H]4O[C@@H]4O[C@H](CO)[C@@H](O)[C@H](O)[C@H]4O)C(C)(C)[C@@H]3CC[C@]12C [Rb2, ginsenoside Rb2]	57
CC(C)=CCC[C@](C)(O[C@@H]1O[C@H](CO[C@@H]2O[C@@H](CO)[C@H](O)[C@H]2O)[C@@H](O)[C@H](O)[C@H]1O)[C@H]1CC[C@]2(C)[C@@H]1[C@H](O)C[C@@H]1[C@@]3(C)CC[C@H](O[C@@H]4O[C@H](CO)[C@@H](O)[C@H](O)[C@H]4O[C@@H]4O[C@H](CO)[C@@H](O)[C@H](O)[C@H]4O)C(C)(C)[C@@H]3CC[C@]12C [Rc, ginsenoside Rc]	58

With those in mind, consider the next molecule.
QUERY: Complete the entry with Percentage of F2 in the reaction product for CC(C)=CCC[C@](C)(O[C@@H]1O[C@H](CO)[C@@H](O)[C@H](O)[C@H]1O)[C@H]1CC[C@]2(C)[C@@H]1[C@H](O)C[C@@H]1[C@@]3(C)CC[C@H](O[C@@H]4O[C@H](CO)[C@@H](O)[C@H](O)[C@H]4O[C@@H]4O[C@H](CO)[C@@H](O)[C@H](O)[C@H]4O)C(C)(C)[C@@H]3CC[C@]12C [Rd, ginsenoside Rd]
RESULT: 50
